Assay: NCI Yeast Anticancer Drug Screen. Data for the mlh1 rad18 strain (AID 175)
Conditions: S. cerevisiae mlh1 rad18 strain growth inhibition; at 50.0 µM (retest, dose inferred, filed as 5.0); active compounds read high
Compounds without any hit were thinned out: in the full panel of roughly 79,000, 15% have a hit.
measured quantity: growth inhibition (%)
// return numeric value only (unit: %, not printed)

Problem: Can you share its growth inhibition? I mean this molecule: CC(C)C1=CC(=O)C2=C(CCC3C(C)(C(=O)O)CCC[C@]23C)C1=O (stereo not given in full)
Result: 99

Problem: Would you mind doing Cc1ccc(S(=O)(=O)C(Br)CC(=O)c2ccccc2)cc1 (stereo not given) as well?
Result: 97

Problem: Would you mind doing Cc1[nH]c2ccccc2c1SCc1ccccc1 as well?
Result: 98

Problem: Would you mind doing CN(C)c1nc(-c2ccccc2)cc(-c2ccc(O)cc2)n1 as well?
Result: 88

Problem: Would you mind doing OC1(c2ccccc2)c2ccccc2Sc2ccccc21 as well?
Result: 97

Problem: Would you mind doing O=c1c2ccccc2sc2c(CO)ccc(NCCN3CCCCC3)c12 as well?
Result: 40

Problem: Would you mind doing Cc1ccc([N+](=O)[O-])cc1Cl as well?
Result: -6

Problem: Would you mind doing COc1ccc2nc3cc(Cl)ccc3c(Nc3ccc(O)c(CN4CCN(C)CC4)c3)c2c1 as well?
Result: 1

Problem: Would you mind doing Clc1cccc(C2SCc3nc4ccccc4n32)c1Cl (stereo not given) as well?
Result: 98
